Tested on: MDA-MB-468 breast
Test method notes: NCI tumour cell line growth inhibition, 48 h; in the data active = GI50 below about 0.43 µM; inactive = the rest
Respond only with the outcome that fits, drawn from 1 (active), -1 (inactive)

Check out these entries, answers already filled in.
CCCCCCCCNC(=O)c1ccc(Cn2c(CCCC)nc3c(N)nc4ccccc4c32)cc1 ... -1
O=c1cc(N2CCOCC2)oc2c(-c3ccc4c(c3)OCCO4)csc12 ... -1
NC(=O)[C@@H](CCC(F)(F)F)N(Cc1ccc(-c2ncon2)cc1F)S(=O)(=O)c1ccc(Cl)cc1 ... -1
O=C1N=C(c2c(-c3[nH]c(=O)c4ccc(Br)cc4c3O)c(O)c3ccccc3c2O)C(=O)c2cc(Br)ccc21 ... 1

Here's the next entry for you.
Please state the recorded outcome for this molecule: COc1ccc(C(=O)/C=C/c2ccc(OCc3ccc(Cl)cc3)cc2)cc1OC
-1

====

Tested on: MDA-MB-468 breast
Test method notes: NCI tumour cell line growth inhibition, 48 h
Assay metric: GI50

These recorded examples may help you get a feel for the data.
N#CCCN1C/C(=C/c2ccccc2)C(=O)/C(=C/c2ccccc2)C1 ... 1680 nM
CCCCCCCCCCCCCCNc1nc(C(=O)OCC)ncc1-c1ccc(C(F)(F)F)cc1 ... > 100000 nM
Cc1ccncc1N1CCN(c2ccnc(Cl)c2)C1=O ... > 100000 nM
COC(=O)N1c2ccc3c(nc(Cc4ccccc4)n3[C@H]3CCC[C@H](C(=O)O)C3)c2CC[C@@H]1C ... 3820 nM
O=C(Nc1ccc(I)cc1)Nc1nc2ccc([N+](=O)[O-])cc2s1 ... 2830 nM

Quick one: give measured GI50 for O=C(N/N=C\c1cc(Cl)ccc1O)c1ccncc1
1830 nM

Quick one: give measured GI50 for COc1ccc2nc(NC(=O)COc3cc(/C=C\c4cc(OC)c(OC)c(OC)c4)ccc3OC)sc2c1
2290 nM

Quick one: give measured GI50 for Clc1ccc(CN2COc3c(ccc4cccnc34)C2)cc1Cl
543 nM

Quick one: give measured GI50 for CC1=C2[C@H]3OC(=O)[C@@H](C)[C@@H]3CC[C@@]2(C)C=CC1=O
> 100000 nM

Quick one: give measured GI50 for Cc1ccc(S(=O)(=O)Oc2ccccc2-c2ccccc2)cc1
866 nM

Quick one: give measured GI50 for O=c1c2sc3ccccc3c2nnn1-c1ccc(F)c(Cl)c1
12800 nM

Quick one: give measured GI50 for COc1cc(C(=O)/C=C/c2cc(-c3cc(OC)c(OC)c(OC)c3)n[nH]2)cc(OC)c1OC
1150 nM

====

Tested on: MDA-MB-468 breast
Test method notes: NCI tumour cell line growth inhibition, 48 h
Recorded TGI for the following compounds
Write the value in µM as a bare number.

These recorded examples may help you get a feel for the data.
CCOP(=O)(CC(F)(F)C(F)(F)F)OCC ... 2.99
CCCCCCC/C(=N\N=C(N)N)c1ccc(O)cc1 ... 2.6
CCCCCCCCNC(=O)c1ccc(Cn2c(CCCC)nc3c(N)nc4ccccc4c32)cc1 ... 3.06
COc1ccc(C(=O)NCCNc2nccc(-c3c(-c4ccc(F)cc4)nc4sccn34)n2)cc1 ... 41
O=C1N=C(c2c(-c3[nH]c(=O)c4ccc(Br)cc4c3O)c(O)c3ccccc3c2O)C(=O)c2cc(Br)ccc21 ... 1.49

Below: the item to evaluate.
Quick one: give measured TGI for Clc1ccc(CN2COc3c(ccc4cccnc34)C2)cc1Cl
2.16
